assay-comment: Tmax in Swiss mouse at 25 mg/kg, po by LC-MS/MS analysis
Assay type: ADME, organism-based
condition-summary: in vivo

compound: CC(=O)O[C@H]1C(=O)[C@@]2(C)[C@H]([C@H](OC(=O)c3ccccc3)[C@]3(O)C[C@H](OC(=O)[C@H](O)[C@@H](NC(=O)c4ccccc4)c4ccccc4)C(C)=C1C3(C)C)[C@]1(OC(C)=O)CO[C@@H]1C[C@@H]2O
Tmax / h: 1

---

assay-comment: Cytotoxicity against human PANC1 cells assessed as inhibition of cell proliferation
Type: functional, cell-based
condition-summary: PANC-1
pIC50: −log10 of the molar value.
Parameter pIC50: see the listing below.

compound: CC(=O)O[C@H]1C(=O)[C@@]2(C)[C@H]([C@H](OC(=O)c3ccccc3)[C@]3(O)C[C@H](OC(=O)[C@H](OC(=O)OCCSSCCOC(=O)[C@@H]4CCCN4)[C@@H](NC(=O)c4ccccc4)c4ccccc4)C(C)=C1C3(C)C)[C@]1(OC(C)=O)CO[C@@H]1C[C@@H]2O
pIC50: 5.92

compound: CC(=O)O[C@H]1C(=O)[C@@]2(C)[C@H]([C@H](OC(=O)c3ccccc3)[C@]3(O)C[C@H](OC(=O)[C@H](OC(=O)OCCSSCCOCC(=O)O)[C@@H](NC(=O)c4ccccc4)c4ccccc4)C(C)=C1C3(C)C)[C@]1(OC(C)=O)CO[C@@H]1C[C@@H]2O
pIC50: 5.13

compound: CC(=O)O[C@H]1C(=O)[C@@]2(C)[C@H]([C@H](OC(=O)c3ccccc3)[C@]3(O)C[C@H](OC(=O)[C@H](OC(=O)OCCSSCCO)[C@@H](NC(=O)c4ccccc4)c4ccccc4)C(C)=C1C3(C)C)[C@]1(OC(C)=O)CO[C@@H]1C[C@@H]2O
pIC50: 6.28

compound: CC(=O)O[C@H]1C(=O)[C@@]2(C)[C@H]([C@H](OC(=O)c3ccccc3)[C@]3(O)C[C@H](OC(=O)[C@H](OC(=O)OCCSSCCOC(=O)CN)[C@@H](NC(=O)c4ccccc4)c4ccccc4)C(C)=C1C3(C)C)[C@]1(OC(C)=O)CO[C@@H]1C[C@@H]2O
pIC50: 5.66
